Test system: RARb:RXRa (NR concentration 270 nM, RXRa partner concentration 90 nM)
ASSAY NAME: PBM binding z-score (relative to random genomic background probes); higher = stronger binding; sequences stand for … in GC…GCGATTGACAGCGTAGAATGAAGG
Answer each item with its documented PBM binding z-score.
Format: numeric value only, no unit, no commentary.

Query :: Form entry - test system: RARb:RXRa (NR concentration 270 nM, RXRa partner concentration 90 nM); read-out: PBM binding z-score; sequence: ACTACAGGGTCACTAGGCCAGAGTAGGTACGAAT
Result :: 4.19

Query :: Form entry - test system: RARb:RXRa (NR concentration 270 nM, RXRa partner concentration 90 nM); read-out: PBM binding z-score; sequence: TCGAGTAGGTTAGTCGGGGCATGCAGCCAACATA
Result :: 0.512

Query :: Form entry - test system: RARb:RXRa (NR concentration 270 nM, RXRa partner concentration 90 nM); read-out: PBM binding z-score; sequence: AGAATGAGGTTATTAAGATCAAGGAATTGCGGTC
Result :: 1.45

Query :: Form entry - test system: RARb:RXRa (NR concentration 270 nM, RXRa partner concentration 90 nM); read-out: PBM binding z-score; sequence: TATACAGGGTCGAAGGCCAGAGTACGAATGTCGA
Result :: 1.75

Query :: Form entry - test system: RARb:RXRa (NR concentration 270 nM, RXRa partner concentration 90 nM); read-out: PBM binding z-score; sequence: TGTAAAAGTTCAAAGGTAACGTAAGTATCCACAC
Result :: 4.85

Query :: Form entry - test system: RARb:RXRa (NR concentration 270 nM, RXRa partner concentration 90 nM); read-out: PBM binding z-score; sequence: TCATATGGGTAAACAGGTGAAAGTCCGTAAGTTA
Result :: 0.316

This collection of values is drawn from the supplement of paper PMC6555819.
